molecules and their reported GI50
# Tested on: EKVX
# Measurement Notes: NCI tumour cell line growth inhibition, 48 h
Calls of active or inactive are those of the source. No stated cut-off is given here; in the data, active = GI50 up to about 1.1 µM and inactive = higher.

The reported GI50 of the molecule COc1ccc(N2C(=O)C3c4[nH]c5ccccc5c4C4CCC(C(C)(C)C)CC4C3C2=O)cc1OC (stereo not given) was 35.8 µM (inactive)

---

# Tested on: PC-3
# Measurement Notes: NCI tumour cell line growth inhibition, 48 h
Active and inactive are the calls of the source. Rule as the data show it: active = GI50 up to about 1.1 µM and inactive = higher.
Endpoint Name: GI50

CC1=C(C)C(=O)C(C2=CC(=O)c3ccccc3C2=O)=C(C2=CC(=O)c3ccccc3C2=O)C1=O	5.74 µM (inactive)

The reported GI50 of the compound CC(C)CCNC(=O)c1ccc(CNC(=O)/C=C/c2csc(-c3ccccc3)n2)cc1 was > 100 µM (inactive)

The reported GI50 of the compound COP(=O)(CP(=O)(OC)OCCC(C)CCC=C(C)C)OC (stereo not drawn) was > 100 µM (inactive)
